# System: Rhizoctonia solani
# experimental_protocol: Poison food technique (contact action), mycelial growth inhibition in PDA
# Format: cell-based, Rhizoctonia solani AG-4, isolate Rs 23A
# experimental_context: amount oil 75 μL/20 mL plate; poison bed experiment 2
# Method: Fungal isolate and preparation of inoculum: Rhizoctonia solani AG-4, isolate Rs 23A is a highly virulent pathogenic isolate which infects many vegetables, ornamentals and turfgrasses (Lewis, J. A., and G. C. Papavizas, Soil Biology and Biochemistry, 9:195-201 (1987)). […] The percent germination and post-emergence damping off of cucumber seedlings were recorded. […]

compound	PoisonB2 % inhibition / %
CC=Cc1ccc(OC)cc1	100
C=CCN=C=S [Allylisothiocyanate]	100
C=CC(C)(O)CCC=C(C)CCC=C(C)C (mixture of isomers)	92
CC(C)=CCC/C(C)=C/CO	100
Cc1ccc(C(C)C)cc1O	100
C=CCc1ccc(OC)cc1	100
Cc1ccc(C(C)C)c(O)c1	100

* * *

# Tested on: Rhizoctonia solani
# experimental_protocol: Filter disk fumigation method, mycelial growth inhibition on PDA
# Format: cell-based, Rhizoctonia solani AG-4, isolate Rs 23A
# experimental_context: amount oil 75 μL/20 mL plate; fumigation experiment 1
Overview of recorded Fumig1 % inhibition for various compounds

compound	test_system	readout_units	Fumig1 % inhibition
Cc1ccc(C(C)C)c(O)c1	Rhizoctonia solani	%	93
C=CCc1ccc(OC)cc1	Rhizoctonia solani	%	98
C=CC(C)(O)CCC=C(C)CCC=C(C)C (mixture of isomers)	Rhizoctonia solani	%	0
Cc1ccc(C(C)C)cc1O	Rhizoctonia solani	%	99
CC(C)=CCC/C(C)=C/CO	Rhizoctonia solani	%	73
C=CCN=C=S [Allylisothiocyanate]	Rhizoctonia solani	%	100

* * *

# Test system: Rhizoctonia solani
# experimental_protocol: Greenhouse suppression of damping off of cucumber seedlings in R. solani infested soil amended with plant extract
# Format: in vivo, Rhizoctonia solani AG-4, isolate Rs 23A
# experimental_context: cucumber damping off, soil amendment at 0.3% (v/w), four weeks after sowing

compound	test_system	% Disease suppression (+ PE + R. solani) (%)
C=CCN=C=S [Allyisothiocynate]	Rhizoctonia solani	88.92
CC=Cc1ccc(OC)cc1	Rhizoctonia solani	58.33
CC(C)=CCC/C(C)=C/CO	Rhizoctonia solani	77.75
C=CCc1ccc(OC)cc1	Rhizoctonia solani	58.33
Cc1ccc(C(C)C)cc1O	Rhizoctonia solani	47.25
Cc1ccc(C(C)C)c(O)c1	Rhizoctonia solani	27.75
C=CCc1ccc(O)c(OC)c1	Rhizoctonia solani	44.42

* * *

# Tested on: Rhizoctonia solani
# experimental_protocol: Poison food technique (contact action), mycelial growth inhibition in PDA
# Format: cell-based, Rhizoctonia solani AG-4, isolate Rs 23A
# experimental_context: amount oil 30 μL/20 mL plate; poison bed experiment 2
Overview of recorded PoisonB2 % inhibition for various compounds

compound	PoisonB2 % inhibition
CC(C)=CCC/C(C)=C/CO [Geraniol]	100%
C=CCN=C=S [Allylisothiocyanate]	100%
C=CCc1ccc(OC)cc1	56%
Cc1ccc(C(C)C)c(O)c1 [Thymol]	100%
CC=Cc1ccc(OC)cc1 [Anethole]	100%
C=CC(C)(O)CCC=C(C)CCC=C(C)C (mixture of isomers) [Nerolidol]	81%
Cc1ccc(C(C)C)cc1O [Carvacrol]	100%

* * *

# Test system: Rhizoctonia solani
# experimental_protocol: Filter disk fumigation method, mycelial growth inhibition on PDA
# Assay type: cell-based, Rhizoctonia solani AG-4, isolate Rs 23A
# experimental_context: amount oil 45 μL/20 mL plate; fumigation experiment 1

molecule	Fumig1 % inhibition
C=CCc1ccc(OC)cc1	97%
Cc1ccc(C(C)C)cc1O [Carvacrol]	100%
C=CC(C)(O)CCC=C(C)CCC=C(C)C (mixture of isomers) [Nerolidol]	0%
CC(C)=CCC/C(C)=C/CO [Geraniol]	62%
C=CCN=C=S [Allylisothiocyanate]	100%
Cc1ccc(C(C)C)c(O)c1 [Thymol]	90%
